measuredOn: Serotonin 5HT7 receptors (Homo sapiens (Human), UniProt P34969)
measurementDescription: Radiolabel Binding Studies for Serotonin 5HT7 receptors
measurementParameters: radioligand competition binding, membranes of cells expressing recombinant 5HT7 receptors
assayMetric: IC50 (nM)
Your answer is read as nM, so omit the unit and give the number.

Query :: Reported IC50, compound CCC1(CC)CC(CCCN2CCN(c3ccc(OC)cc3)CC2)OC1=O (stereo not drawn) : ____
Result :: 1000

Query :: Can you check "COc1ccc(N2CCN(CC[C@H]3CC(C)(C)C(=O)O3)CC2)cc1" next?
Result :: 1000

Query :: Can you check CCC1(CC)CC(CCN2CCN(c3ccc4nc(C)[nH]c4c3)CC2)OC1=O (stereo not drawn) next?
Result :: 1000

Query :: Can you check COc1ccnc(N2CCN(CCC3CC4(CCCC4)C(=O)O3)CC2)c1 (stereo not drawn) next?
Result :: 124

Query :: Can you check CCC1(CC)CC(CCN2CCN(c3ccc4nc(C(F)(F)F)[nH]c4c3)CC2)OC1=O (stereo not drawn) next?
Result :: 1000

Query :: Can you check "COc1ccc(N2CCN(CC[C@@H]3CC(C)(C)C(=O)O3)CC2)cc1" next?
Result :: 1000

This collection of values is drawn from patent US11192871B2.
